# Tested on: NCI-H2087
# testName: relative viability (nuclei count vs DMSO), 5 days (fraction); higher = more cells survive
# measurementParameters: first compound 0.4 µM
Please respond with MET when measured relative viability is strictly beneath 0.7, and with NOT MET in all other cases.

molecule	group
O=C(O)c1ccc(-c2c[nH]c3ncc(-c4ccccc4)cc23)cc1C1CCCC1 + C[C@]1(O)C[C@@H](c2nc(-c3ccc4ccc(-c5ccccc5)nc4c3)c3c(N)nccn32)C1 [Linsitinib] (partner 1 µM)	NOT MET

Just wondering, is relative viability of O=C(O)c1ccc(-c2c[nH]c3ncc(-c4ccccc4)cc23)cc1C1CCCC1 + NC(=O)Nc1cc(-c2cccc(F)c2)sc1C(=O)N[C@H]1CCCNC1 [AZD7762] (partner 0.2 µM) below 0.7?
NOT MET

Just wondering, is relative viability of O=C(O)c1ccc(-c2c[nH]c3ncc(-c4ccccc4)cc23)cc1C1CCCC1 + Cc1cc(Nc2cc(N3CCN(C)CC3)nc(Sc3ccc(NC(=O)C4CC4)cc3)n2)n[nH]1 [Tozasertib] (partner 0.1 µM) below 0.7?
MET

Just wondering, is relative viability of O=C(O)c1ccc(-c2c[nH]c3ncc(-c4ccccc4)cc23)cc1C1CCCC1 + Nc1nc2[nH]cc(CCc3ccc(C(=O)N[C@@H](CCC(=O)O)C(=O)O)cc3)c2c(=O)[nH]1 [Pemetrexed] (partner 0.2 µM) below 0.7?
MET

Just wondering, is relative viability of O=C(O)c1ccc(-c2c[nH]c3ncc(-c4ccccc4)cc23)cc1C1CCCC1 + N=C(N)NC(=N)NCCc1ccccc1 [Phenformin] (partner 250 µM) below 0.7?
MET

Just wondering, is relative viability of O=C(O)c1ccc(-c2c[nH]c3ncc(-c4ccccc4)cc23)cc1C1CCCC1 + CCNC(=O)c1noc(-c2cc(C(C)C)c(O)cc2O)c1-c1ccc(CN2CCOCC2)cc1 [Luminespib] (partner 0.01 µM) below 0.7?
MET
